Hey, just so you know, these numbers are from the NIST ThermoML archive (doi:10.1016/j.jct.2011.02.012).

# assay summary: activity coefficient (dimensionless); of the first substance listed, at infinite dilution; xn = mol fraction of the nth substance listed
# reported conditions: 328.15 K; Liquid; Chromatography; x1 = 0
Answer each item with its documented activity coefficient.

Exercise: Request the reported activity coefficient associated with CCc1ccccc1 [ethylbenzene] + CCn1cc[n+](C)c1.N#C[B-](C#N)(C#N)C#N
Key: 2.61

Exercise: Request the reported activity coefficient associated with CCCC(=O)CC [3-hexanone] + CCn1cc[n+](C)c1.N#C[B-](C#N)(C#N)C#N
Key: 1.24

Exercise: Request the reported activity coefficient associated with C=CCCCCC [1-heptene] + CCn1cc[n+](C)c1.N#C[B-](C#N)(C#N)C#N
Key: 18.3

Exercise: Request the reported activity coefficient associated with CCOCC [diethyl ether] + CCn1cc[n+](C)c1.N#C[B-](C#N)(C#N)C#N
Key: 2.74

Exercise: Request the reported activity coefficient associated with CC(C)=O [acetone] + CCn1cc[n+](C)c1.N#C[B-](C#N)(C#N)C#N
Key: 0.466

Exercise: Request the reported activity coefficient associated with c1ccccc1 [benzene] + CCn1cc[n+](C)c1.N#C[B-](C#N)(C#N)C#N
Key: 1.18

Exercise: Request the reported activity coefficient associated with Cc1cccc(C)c1 [1,3-dimethylbenzene] + CCn1cc[n+](C)c1.N#C[B-](C#N)(C#N)C#N
Key: 2.6

Exercise: Request the reported activity coefficient associated with Cc1ccccc1 [toluene] + CCn1cc[n+](C)c1.N#C[B-](C#N)(C#N)C#N
Key: 1.71

* * *

# assay summary: activity coefficient (dimensionless); of the first substance listed, at infinite dilution; xn = mol fraction of the nth substance listed
# reported conditions: 308.15 K; Liquid; Chromatography; x1 = 0
Answer each item with its documented activity coefficient.
Answer using only a numeral; do not append any unit.

Exercise: Request the reported activity coefficient associated with CCCCO [butan-1-ol] + CCn1cc[n+](C)c1.N#C[B-](C#N)(C#N)C#N
Key: 2.41

Exercise: Request the reported activity coefficient associated with CCCO [propan-1-ol] + CCn1cc[n+](C)c1.N#C[B-](C#N)(C#N)C#N
Key: 1.81

Exercise: Request the reported activity coefficient associated with CCc1ccccc1 [ethylbenzene] + CCn1cc[n+](C)c1.N#C[B-](C#N)(C#N)C#N
Key: 2.6

Exercise: Request the reported activity coefficient associated with CCC(=O)CC [pentan-3-one] + CCn1cc[n+](C)c1.N#C[B-](C#N)(C#N)C#N
Key: 0.798

* * *

# assay summary: activity coefficient (dimensionless); of the first substance listed, at infinite dilution; xn = mol fraction of the nth substance listed
# reported conditions: 358.15 K; Liquid; Chromatography; x1 = 0
Answer each item with its documented activity coefficient.
Answer using only a numeral; do not append any unit.

Exercise: Request the reported activity coefficient associated with C1CCCCCC1 [cycloheptane] + CCn1cc[n+](C)c1.N#C[B-](C#N)(C#N)C#N
Key: 13.9

Exercise: Request the reported activity coefficient associated with C#CCCCCCC [1-octyne] + CCn1cc[n+](C)c1.N#C[B-](C#N)(C#N)C#N
Key: 7.73

Exercise: Request the reported activity coefficient associated with Cc1cccc(C)c1 [1,3-dimethylbenzene] + CCn1cc[n+](C)c1.N#C[B-](C#N)(C#N)C#N
Key: 2.64

Exercise: Request the reported activity coefficient associated with Cc1ccc(C)cc1 [1,4-dimethylbenzene] + CCn1cc[n+](C)c1.N#C[B-](C#N)(C#N)C#N
Key: 2.54

Exercise: Request the reported activity coefficient associated with C#CCCCCC [1-heptyne] + CCn1cc[n+](C)c1.N#C[B-](C#N)(C#N)C#N
Key: 5.33
